Assay: Inhibition of HIV integrase-mediated strand transfer activity
Set-up: species or system Human immunodeficiency virus
Measurement label: IC50 (nM)

line_notation=CN(C(=O)/C=C(\O)C(=O)O)c1cccc(Cl)c1 measurement_label=IC50 units_text=nM value_relation_sign=> value_observed=125000
line_notation=O=C(O)/C(O)=C/C(=O)N1CCc2cc(F)ccc21 measurement_label=IC50 units_text=nM value_relation_sign== value_observed=230
line_notation=O=C(O)/C(O)=C/c1nc2ccc(Cl)cc2o1 measurement_label=IC50 units_text=nM value_relation_sign=> value_observed=100000
line_notation=O=C(/C=C(\O)C(=O)O)Nc1ccc(F)c(F)c1 measurement_label=IC50 units_text=nM value_relation_sign== value_observed=2400
line_notation=O=C(/C=C(\O)C(=O)O)Nc1ccc(F)cc1 measurement_label=IC50 units_text=nM value_relation_sign== value_observed=13400
line_notation=O=C(O)/C(O)=C/C(=O)N1CCc2ccccc21 measurement_label=IC50 units_text=nM value_relation_sign== value_observed=200
line_notation=O=C(/C=C(\O)C(=O)O)Nc1ccc(Cl)c(Cl)c1 measurement_label=IC50 units_text=nM value_relation_sign== value_observed=160
line_notation=O=C(/C=C(\O)C(=O)O)Nc1cccc(Cl)c1 measurement_label=IC50 units_text=nM value_relation_sign== value_observed=700
line_notation=O=C(/C=C(\O)C(=O)O)Cc1ccccc1 measurement_label=IC50 units_text=nM value_relation_sign=> value_observed=200000
line_notation=O=C(/C=C(\O)C(=O)O)Nc1ccc(Cl)cc1 measurement_label=IC50 units_text=nM value_relation_sign== value_observed=5600
line_notation=O=C(O)/C(O)=C/C(=O)N1CCc2cc(Cl)c(Cl)cc21 measurement_label=IC50 units_text=nM value_relation_sign== value_observed=20
